Listing of recorded IC50 by entry.
molecular target: DNA topoisomerase II (Homo sapiens, UniProt P11388+Q02880); assay: Inhibition of topoisomerase II as conversion of catenated to decatenated KDNA; format: protein assay
Number only, in nM; omit the unit.

The examples below pair each entry with its known result.
- compound: "NC1CCN(c2c(F)cc3c(=O)c(C(=O)O)cn4c3c2Oc2ccc3ccccc3c2-4)C1 (stereo not drawn)"
  unit-info: "nM"
  val: 770
- compound: "O=C(O)c1cn2c3c(c(N4CCNCC4)c(F)cc3c1=O)Oc1cc3ccccc3cc1-2"
  unit-info: "nM"
  val: 640

IN: Could you share which IC50 value was measured for NC1CCN(c2c(F)cc3c(=O)c(C(=O)O)cn4c3c2Oc2c-4ccc3ccccc23)C1 (stereo not drawn) ?
OUT: 550

IN: Fill in the blank: the reported IC50 of `N[C@H]1CCN(c2c(F)cc3c(=O)c(C(=O)O)cn4c3c2Oc2ccc3ccccc3c2-4)C1` is ____.
OUT: 720

IN: What IC50 value was documented for this compound, `O=C(O)c1cn2c3c(c(N4CCNCC4)c(F)cc3c1=O)Oc1ccc3ccccc3c1-2` ?
OUT: 9600

IN: Sample `N[C@H]1CCN(c2c(F)cc3c(=O)c(C(=O)O)cn4c3c2Oc2c-4ccc3ccccc23)C1` — what was its IC50?
OUT: 490

IN: // query IC50 value for entry `N[C@@H]1CCN(c2c(F)cc3c(=O)c(C(=O)O)cn4c3c2Oc2c-4ccc3ccccc23)C1`
OUT: 240

IN: Name the reported IC50 value associated with the compound `O=C(O)c1cn2c3c(c(N4CCNCC4)c(F)cc3c1=O)Oc1c-2ccc2ccccc12`
OUT: 1840

IN: Give its IC50 value. Item: `N[C@H]1CCN(c2c(F)cc3c(=O)c(C(=O)O)cn4c3c2Oc2ccccc2-4)C1`
OUT: 510

IN: # lookup: IC50 of `N[C@@H]1CCN(c2c(F)cc3c(=O)c(C(=O)O)cn4c3c2Oc2cc3ccccc3cc2-4)C1`
OUT: 420

IN: So what's the measured IC50 for this one? `N[C@H]1CCN(c2c(F)cc3c(=O)c(C(=O)O)cn4c3c2Oc2cc3ccccc3cc2-4)C1`
OUT: 440

IN: What does the record list as IC50 for `N[C@@H]1CCN(c2c(F)cc3c(=O)c(C(=O)O)cn4c3c2Oc2ccc3ccccc3c2-4)C1` ?
OUT: 1220

IN: Requested field: IC50. Item: NC1CCN(c2c(F)cc3c(=O)c(C(=O)O)cn4c3c2Oc2cc3ccccc3cc2-4)C1 (stereo not drawn)
OUT: 770

----------
test system: HT-29; test: The compound was tested for the concentration to inhibit 50% of HT-29 colon cells.; type: functional, cell-based; details: Homo sapiens
pIC50: −log10 of the molar value.
// label = Yes if pIC50 is not less than 7, otherwise No

Take a look at these entries with their results.
- compound: "O=C(O)c1cn2c3c(c(N4CCNCC4)c(F)cc3c1=O)Oc1ccc3ccccc3c1-2"
  class-assignment: "No"
- compound: "NC1CCN(c2c(F)cc3c(=O)c(C(=O)O)cn4c3c2Oc2c-4ccc3ccccc23)C1 (stereo not drawn)"
  class-assignment: "Yes"
- compound: "N[C@@H]1CCN(c2c(F)cc3c(=O)c(C(=O)O)cn4c3c2Oc2c-4ccc3ccccc23)C1"
  class-assignment: "Yes"

IN: Is it the case that `N[C@@H]1CCN(c2c(F)cc3c(=O)c(C(=O)O)cn4c3c2Oc2ccc3ccccc3c2-4)C1` has pIC50 reaching or exceeding 7?
OUT: No

IN: Hi team, for `O=C(O)c1cn2c3c(c(N4CCNCC4)c(F)cc3c1=O)Oc1c-2ccc2ccccc12` , is the recorded pIC50 at or above 7?
OUT: No

IN: # check: pIC50 of `N[C@H]1CCN(c2c(F)cc3c(=O)c(C(=O)O)cn4c3c2Oc2c-4ccc3ccccc23)C1` is greater than or equal to 7
OUT: Yes

IN: Determine whether measured pIC50 meets or exceeds 7 for `O=C(O)c1cn2c3c(c(N4CCNCC4)c(F)cc3c1=O)Oc1cc3ccccc3cc1-2`
OUT: No

IN: Say whether NC1CCN(c2c(F)cc3c(=O)c(C(=O)O)cn4c3c2Oc2ccc3ccccc3c2-4)C1 (stereo not drawn) shows pIC50 of 7 or more.
OUT: No

IN: Check this compound for pIC50 at or above 7: `N[C@H]1CCN(c2c(F)cc3c(=O)c(C(=O)O)cn4c3c2Oc2ccc3ccccc3c2-4)C1`
OUT: No

IN: Does pIC50 meet or surpass 7 for `N[C@@H]1CCN(c2c(F)cc3c(=O)c(C(=O)O)cn4c3c2Oc2cc3ccccc3cc2-4)C1` ?
OUT: Yes

IN: Does the compound NC1CCN(c2c(F)cc3c(=O)c(C(=O)O)cn4c3c2Oc2cc3ccccc3cc2-4)C1 (stereo not drawn) have recorded pIC50 that is 7 or more?
OUT: Yes

IN: Given `N[C@H]1CCN(c2c(F)cc3c(=O)c(C(=O)O)cn4c3c2Oc2cc3ccccc3cc2-4)C1` , state whether its pIC50 is at least 7.
OUT: Yes
